TARGET ENTITY: human URAT1 (Homo sapiens, UniProt Q96S37)
Construct: Human URAT1 full length cDNA was subcloned to expression vector pcDNA3.1
Sequence (Q96S37 1-553): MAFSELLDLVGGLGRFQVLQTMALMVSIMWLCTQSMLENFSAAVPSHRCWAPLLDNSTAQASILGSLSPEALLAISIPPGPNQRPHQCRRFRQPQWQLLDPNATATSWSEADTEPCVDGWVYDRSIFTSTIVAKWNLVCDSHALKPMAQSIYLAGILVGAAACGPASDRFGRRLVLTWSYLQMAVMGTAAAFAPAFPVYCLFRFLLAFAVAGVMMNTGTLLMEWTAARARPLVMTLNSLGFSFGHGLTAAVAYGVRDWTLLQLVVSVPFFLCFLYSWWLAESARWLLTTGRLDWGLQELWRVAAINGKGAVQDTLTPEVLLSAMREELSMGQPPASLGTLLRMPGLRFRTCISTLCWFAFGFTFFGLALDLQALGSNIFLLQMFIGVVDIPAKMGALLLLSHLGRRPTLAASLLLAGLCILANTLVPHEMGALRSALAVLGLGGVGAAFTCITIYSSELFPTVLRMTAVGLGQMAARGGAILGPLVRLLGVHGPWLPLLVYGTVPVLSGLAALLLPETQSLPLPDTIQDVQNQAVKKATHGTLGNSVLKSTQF
TEST SUMMARY: Uric acid transport inhibitory test using human URAT1-expressing cells
SETUP CONDITIONS: human URAT1 expressing HEK293 cells, uptake of 14C-labeled uric acid for 5 min, room temperature; read-out: hURAT1 (IC50, concentration necessary for inhibiting the uric acid transport rate by 50%)
ASSAY ENDPOINT: IC50

Solved entries (count: 5):
COMPOUND: COc1c(Cl)cc(C(=O)N2CCOc3ccccc32)cc1Cl
IC50: 1000 to 3000 nM
//
COMPOUND: O=C(c1cc(Cl)c(O)c(Cl)c1)N1CCOc2ccc(F)cc21
IC50: < 100 nM
//
COMPOUND: Cc1cccc2c1OCCN2C(=O)c1cc(Cl)c(O)c(Cl)c1
IC50: < 100 nM
//
COMPOUND: O=C(c1cc(Br)c(O)c(Br)c1)N1CCOc2ccc3ccccc3c21
IC50: < 100 nM
//
COMPOUND: COC(=O)c1cccc2c1N(C(=O)c1cc(Cl)c(O)c(Cl)c1)CCO2
IC50: 100 to 1000 nM

What IC50 value was documented for this compound, O=C(c1cc(Cl)c(O)c(Cl)c1)N1CCOc2ccc(C(F)(F)F)cc21 ?
< 100 nM

// data source = patent US20080064871A1
